tested on: HIPK4; conditions: concentration: 1 μM, replicates: in singlicate; n = 1;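 note: KINOMEscan kinase panel screen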
measuredEndpoint: %Inh (%)
Give bare numbers, in %.

Nc1ncnc2c1ncn2-c1ccc(Cl)cc1 ... 0
COc1cc(Nc2nccc(N3CCC(NC(=O)C(C)c4ccc(Cl)cc4)C3)n2)cc(OC)c1OC (centres unmarked) ... 0
CCCC(=O)Nc1n[nH]c2ncc(-c3cccc4ccccc34)cc12 ... 26
COc1ccc(-c2cc3c(C)nc(N)nc3n([C@H]3CC[C@H](O)CC3)c2=O)cn1 ... 0

Req: Indicate the recorded %Inh value for this compound: OCCCNc1nccc(-c2c(-c3cccc(C(F)(F)F)c3)nn3cc(C(F)(F)F)ccc23)n1
Resp: 0

----------
system: TBK1; details: concentration: 1 μM, replicates: in singlicate; n = 1
Decision: %Inh >= 20% yields MET, all other cases yield NOT MET.

O=C(Nc1n[nH]c2nc(-c3ccccc3)c(Br)cc12)C1CC1 [SB-708998] ... NOT MET
COc1cc2nccc(Nc3ccc(OCc4ccc(NC(C)=O)cc4)cc3)c2cc1OC.Cl [GW440135] ... NOT MET
CCc1nc(-c2cccc(C)c2)c(-c2ccncc2)s1 ... MET
COc1cc2ncn(-c3cc(OCCCc4ccccc4)c(C(N)=O)s3)c2cc1OC [GSK205189] ... NOT MET
O=C(NCc1cccs1)c1cc(C(=O)c2c(Cl)cccc2Cl)c[nH]1 [GW823670] ... NOT MET

Req: Has Cc1cccc(-c2nc(Nc3ccc4c(cnn4C)c3)c3ccccc3n2)n1 [GW876731] a recorded %Inh greater than or equal to 20%?
Resp: NOT MET

Req: Is the recorded value of %Inh equal to or greater than 20% for this compound? CCc1ccc(-c2ccc3c(c2)-c2nn(C)cc2S(=O)(=O)N3C)cc1
Resp: NOT MET

Req: Check this compound for %Inh at or above 20%: COc1cc(Nc2ccnc3ccc(C(F)(F)F)cc23)cc(OC)c1OC [GW577382]
Resp: NOT MET

----------
tested on: RPS6KA4(Kin.Dom.1-N-terminal); details: concentration: 1 μM, replicates: in singlicate; n = 1
Exercise: for every item that follows, state its recorded %Inh.
One number for each entry, in %.

Consider the following illustrative entries.
Cl.NS(=O)(=O)c1cccc(Nc2cc(-c3ccc(F)cc3)n[nH]2)c1 [GW824645] ... 17
Cc1cccc(-c2cc(-c3c[nH]nc3-c3ccccn3)ccn2)c1 [GW679395] ... 1
CCCNC(=O)Nc1ccc(Oc2ncnc3ccn(C)c23)cc1 ... 0

Field: %Inh. Fill in for each record below.
1. COC(=O)c1c(-c2ccccc2)c2cc(Br)ccc2c(=O)n1Cc1ccc(NC(=O)CCC(=O)O)cc1
2. COC(=O)c1c(-c2ccccc2)c2cc(C)ccc2c(=O)n1Cc1ccccc1
3. Nc1n[nH]c2ncc(-c3ccccc3)cc12 [SB-517081]

Resp:
1: 0; 2: 0; 3: 7

Record %Inh for all entries; do not skip any.
1. O=C(Nc1n[nH]c2nc(-c3ccccc3)c(Br)cc12)C1CC1 [SB-708998]
2. CCc1ccc(-c2ccc3c(c2)-c2nn(C)cc2S(=O)(=O)N3C)cc1
3. COc1cccc(C2=C(Nc3cccc(C(=O)O)c3)C(=O)NC2=O)c1 [SB-390770]
4. Cc1nc(N(C)[C@H]2CN(C(=O)CC#N)CC[C@H]2C)c2cc[nH]c2n1

Resp:
1: 4; 2: 0; 3: 0; 4: 0

Would you mind giving %Inh for every compound in the list below?
1. Cc1c(Cn2c(C)nn3c(=O)cc(N4CCO[C@H](C)C4)nc23)cccc1C(F)(F)F [GSK2373690]
2. O=C(Nc1ccc2c(c1)OCO2)NC1CCN(c2ccnc(NCc3ccc(F)cc3)n2)CC1 [GSK1379859]

Resp:
1: 16; 2: 13

----------
test system: RPS6KA4(Kin.Dom.2-C-terminal); details: concentration: 1 μM, replicates: in singlicate; n = 1
Hi there, I'd appreciate the recorded %Inh for every entry that follows.
Give bare numbers, in %.

CCC(=O)c1c(-c2ccccc2)c2cc(Cl)ccc2c(=O)n1Cc1cc(S(C)(=O)=O)n(CC(N)=O)n1 ... 0
Cc1nc(N(C)[C@H]2CN(C(=O)CC#N)CC[C@H]2C)c2cc[nH]c2n1 ... 10
COC(=O)c1c(-c2ccccc2)c2cc(Br)ccc2c(=O)n1Cc1ccc(S(C)(=O)=O)cc1 ... 21

# map each compound to its %Inh
1. COc1cccc(C2=C(Nc3cccc(C(=O)O)c3)C(=O)NC2=O)c1
2. CCS(=O)c1ccc(-c2coc3ccc(-c4nnc(C)o4)cc23)cc1 (stereo not drawn)
3. COc1cc2ncn(-c3cc(OCc4ccncc4)c(C(N)=O)s3)c2cc1OC
4. O=C(Nc1n[nH]c2cc(-c3ccccc3F)ccc12)C1CC1
5. CCC(=O)c1c(-c2ccccc2)c2cc(Cl)ccc2c(=O)n1Cc1cc(S(C)(=O)=O)n(CC(F)F)n1
6. CN1C(=O)C(Nc2ccccc2)=C(c2ccccc2)C1=O

Resp:
1: 0; 2: 11; 3: 0; 4: 0; 5: 0; 6: 0

----------
test system: LZK; construct: gene MAP3K13; details: concentration: 1 μM, replicates: in singlicate; n = 1
measuredEndpoint: %Inh
A bare number is not enough; add the unit after it.

Example cases with answers are listed next.
CCn1c(-c2nonc2N)nc2ccccc21 ... 55%
Cc1cccc(-c2nc(Nc3ccc4c(cnn4C)c3)c3ccccc3n2)n1 ... 0%
Cc1ccc(-c2ccc3c(ccc4sc5c(c43)NC[C@@H](C)N=C5N(C)C)n2)cn1 ... 0%
Cl.NS(=O)(=O)c1cccc(Nc2cc(-c3ccc(F)cc3)n[nH]2)c1 ... 0%
CCC(=O)c1c(-c2ccccc2)c2cc(Cl)ccc2c(=O)n1Cc1cc(S(C)(=O)=O)n(CCC(C)(C)O)n1 ... 13%
Cc1nc(N(C)[C@H]2CN(C(=O)CC#N)CC[C@H]2C)c2cc[nH]c2n1 ... 0%
C[C@@H]1CC[C@H](C(=O)NC2CCCCC2)CN1c1cc(-c2ccc3c(N)n[nH]c3c2)nc(N)n1 ... 0%
CCC(=O)c1c(-c2ccccc2)c2cc(Cl)ccc2c(=O)n1Cc1cc(S(C)(=O)=O)n(CC(N)=O)n1 ... 0%
Cc1cccc(-c2cc(-c3c[nH]nc3-c3ccccn3)ccn2)c1 ... 12%
CN1C(=O)C(Nc2cc(Cl)c(O)c(Cl)c2)=C(c2ccc(Cl)cc2)C1=O ... 6%

Hi! Can you tell me %Inh for each of these molecules?
1. COc1ccc(-c2cc3c(C)nc(N)nc3n([C@H]3CC[C@H](OCCO)CC3)c2=O)cn1
2. CCC(=O)c1c(-c2ccccc2)c2cc(Cl)ccc2c(=O)n1Cc1ccc(C(=O)O)cc1
3. CCCNC(=O)Nc1ccc(Oc2ncnc3ccn(C)c23)cc1
4. Cc1nnc(-c2ccc(C)c(-c3ccc(C(=O)O)cc3)c2)o1
5. Nc1nccc2scc(-c3ccc4c(c3)CCN4C(=O)Cc3ccccc3)c12

Resp:
1. 0%
2. 0%
3. 22%
4. 0%
5. 1%

----------
test system: IKK-alpha; construct: gene CHUK; conditions: concentration: 1 μM, replicates: in singlicate; n = 1
Rule for this label: TRUE means %Inh is less than 7%; FALSE means %Inh is at least 7%.

Example cases with answers are listed next.
CCC(=O)c1c(-c2ccccc2)c2cc(Cl)ccc2c(=O)n1Cc1cc(C(=O)NC2CC2)n(C)n1 ... TRUE
Cc1cccc(-c2cc(-c3c[nH]nc3-c3ccccn3)ccn2)c1 [GW679395] ... TRUE
Nc1ncnc2c1ncn2-c1cccc2ccccc12 [SKF-97184] ... FALSE
COC(=O)c1c(-c2ccccc2)c2cc(Br)ccc2c(=O)n1Cc1ccc(S(C)(=O)=O)cc1 ... FALSE

--- query ---
Req: Strictly below 7% in %Inh? COc1cc(Nc2nccc(N3CCC(NC(=O)C(C)c4ccc(Cl)cc4)C3)n2)cc(OC)c1OC (stereo not drawn) [GSK1379757]
Resp: TRUE

----------
tested on: FYN; conditions: concentration: 1 μM, replicates: in singlicate; n = 1
Mark T only for %Inh values smaller than 10%; exact matches and larger values are F.

Solved entries:
COc1cccc(C2=C(N(C)c3ccccc3)C(=O)NC2=O)c1 ... F
Cc1nn2c(=O)cc(N3CCOCC3)nc2n1Cc1cccc(Cl)c1Cl ... T
O=C(Nc1n[nH]c2nc(-c3ccccc3)c(Br)cc12)C1CC1 ... F
Cc1cccc(-c2nc(Nc3ccc4c(cnn4C)c3)c3ccccc3n2)n1 ... T
COc1cc2ncn(-c3cc(OCc4ccncc4)c(C(N)=O)s3)c2cc1OC ... F

Req: Quick check: does CCCNC(=O)Nc1ccc(Oc2ncnc3ccn(C)c23)cc1 have %Inh under 10%?
Resp: T

Req: State whether 10% exceeds %Inh recorded for Cn1c(=O)c(F)c(Nc2ccc(I)cc2F)c2c(=O)n(OC[C@H](O)CO)cnc21 .
Resp: F

Req: Decide: %Inh of CCn1c(-c2nonc2N)nc2ccccc21 strictly below 10%?
Resp: T

Req: Just wondering, is %Inh of COc1cc2ncn(-c3cc(OCc4ccc(S(C)(=O)=O)cc4)c(C(N)=O)s3)c2cc1OC below 10%?
Resp: T
